# target-or-test-system: Torsin-1A-interacting protein 2 (Homo sapiens) (UniProt Q8NFQ8)
# Sequence (Q8NFQ8 whole entry, looked up): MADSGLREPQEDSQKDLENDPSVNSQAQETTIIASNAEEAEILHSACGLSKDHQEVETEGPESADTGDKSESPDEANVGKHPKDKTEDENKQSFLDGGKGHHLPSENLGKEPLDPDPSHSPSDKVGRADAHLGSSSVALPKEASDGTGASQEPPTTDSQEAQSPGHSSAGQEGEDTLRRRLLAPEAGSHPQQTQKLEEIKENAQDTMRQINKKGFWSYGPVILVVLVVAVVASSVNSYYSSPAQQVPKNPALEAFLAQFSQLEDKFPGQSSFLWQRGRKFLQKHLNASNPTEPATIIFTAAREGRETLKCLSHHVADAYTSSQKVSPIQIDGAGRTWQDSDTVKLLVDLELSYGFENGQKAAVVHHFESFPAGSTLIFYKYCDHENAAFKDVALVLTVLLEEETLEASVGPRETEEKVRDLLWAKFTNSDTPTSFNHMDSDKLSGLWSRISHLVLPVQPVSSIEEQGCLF
# assay-comment: LULL1 binders on small-molecule microarray, primary screen, cell lysate, human LULL1 lysate, 635/667 nm fluorescence (AID 1092);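 further: probe is lysate of COS7 cells overexpressing human LULL1; score merges per-feature 667 nm fluorescence with signal-to-noise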
# test-parameters: hLULL1 lysate binding, 635 nm fluorescence, higher = more signal
Use Fulfilled when the recorded composite z-score is no lower than 0.3; use Not fulfilled when it is lower.

Consider the following illustrative entries.
# compound, class-label
data = [
    ("CC1O[C@H]2C3=C(C(=O)[C@@H]4O[C@@H]4[C@H]3O)[C@@H]1C1[C@@H](C)OC=C3[C@H](O)C4O[C@@H]4C(=NOCc4ccccc4)[C@]312 (stereo not given in full)", "Fulfilled"),
    ("CO[C@@H]1COC(=O)CC=C[C@@H](C)[C@@H]2C=C[C@H](O)[C@@H](COC(=O)CC=C[C@H]1C)O2", "Not fulfilled"),
    ("COC(=O)CC=C[C@H](C)[C@@H](OCc1cccc(Br)c1)[C@@H](C)[C@H](OC)C1CCCCC1", "Not fulfilled"),
    ("COC(=O)[C@@H]1CC[C@H](C)[C@@H](c2ccc(C)cc2)N1C(=O)c1ccc(C=NO[C@@H]2O[C@H](COC(C)=O)[C@@H](OC(C)=O)[C@H](OC(C)=O)[C@H]2OC(C)=O)cc1", "Fulfilled"),
    ("COc1cccc([C@H]2Oc3ccc(OC)cc3C(=NOC[C@@H](C)[C@H](OCc3ccccc3)C(C)C)[C@@H]2O)c1", "Fulfilled"),
    ("C#CCCCON=C1C[C@@H](O)[C@@H](O)[C@@H]2[C@@H]3C(=O)N(CC)C(=O)[C@@H]3CC[C@@H]12", "Not fulfilled"),
]

INPUT: Decide: is the reported value of composite z-score for C=CC[C@@H]1C=C[C@H](ON=C(C)CCN2CCc3nc(-c4ccccc4)c(-c4ccccc4)cc3C2)[C@@H](CO)O1 equal to or greater than 0.3?
OUTPUT: Fulfilled

INPUT: Decide: is the reported value of composite z-score for CCN1C(=O)[C@H]2[C@H]3[C@H](O)[C@H](O)CC(=NNC(=O)OCc4ccc(OC)cc4)[C@@H]3CC[C@H]2C1=O equal to or greater than 0.3?
OUTPUT: Not fulfilled

INPUT: Decide: is the reported value of composite z-score for CC(=O)OC[C@H]1O[C@H](CCON=C2[C@H]3CCn4c(=O)n(-c5ccccc5)c(=O)n4[C@H]3[C@H](O)[C@@H]3O[C@H]23)C=C[C@@H]1OC(C)=O equal to or greater than 0.3?
OUTPUT: Fulfilled

INPUT: Decide: is the reported value of composite z-score for CCOC(=O)[C@H](CC(C)C)NC(=O)CCC1CC(OC(=O)NCc2ccc3c(c2)OCO3)CC2(CCCC(COC(=O)NCCCN3CCCC3=O)O2)O1 (stereo not given in full) equal to or greater than 0.3?
OUTPUT: Fulfilled

INPUT: Decide: is the reported value of composite z-score for CC(C)=NO[C@H](C)c1cn([C@H](CO)Cc2ccccc2)nn1 equal to or greater than 0.3?
OUTPUT: Fulfilled

INPUT: Decide: is the reported value of composite z-score for CC(C)(C)N1C(=O)[C@H]2[C@H]3[C@H](O)C=CC(=O)[C@@H]3CC[C@H]2C1=O equal to or greater than 0.3?
OUTPUT: Not fulfilled

INPUT: Decide: is the reported value of composite z-score for CCOC(=O)NN=C1C[C@@H](O)[C@@H](O)[C@@H]2[C@@H]3C(=O)N(C(C)(C)C)C(=O)[C@@H]3CC[C@H]12 equal to or greater than 0.3?
OUTPUT: Not fulfilled

INPUT: Decide: is the reported value of composite z-score for COC(=O)CC=C[C@@H](C)[C@H](OCc1cccc(-c2ccccc2)c1)C1CCCCC1 equal to or greater than 0.3?
OUTPUT: Not fulfilled

INPUT: Decide: is the reported value of composite z-score for C#CCCCON=C1C[C@@H](O)[C@@H](O)[C@@H]2[C@@H]3C(=O)N(C(C)(C)C)C(=O)[C@@H]3CC[C@H]12 equal to or greater than 0.3?
OUTPUT: Not fulfilled

INPUT: Decide: is the reported value of composite z-score for COc1ccc(COC(=O)NN=C2C[C@@H](O)[C@@H](O)[C@@H]3[C@@H]4C(=O)N(c5ccc(F)cc5F)C(=O)[C@@H]4CC[C@H]23)cc1 equal to or greater than 0.3?
OUTPUT: Not fulfilled

INPUT: Decide: is the reported value of composite z-score for O=C1CCCC=C1C(O)CCCCBr (stereo not given) equal to or greater than 0.3?
OUTPUT: Fulfilled

INPUT: Decide: is the reported value of composite z-score for CCOC(=O)NN=C1C[C@@H](O)[C@@H](O)[C@@H]2[C@@H]3C(=O)N(Cc4ccccc4)C(=O)[C@@H]3CC[C@H]12 equal to or greater than 0.3?
OUTPUT: Not fulfilled

---

Entries and their composite z-score values follow.
# target-or-test-system: Dihydroorotate dehydrogenase (quinone), mitochondrial (Plasmodium falciparum (isolate 3D7)) (UniProt Q08210)
# Sequence (Q08210 whole entry, looked up): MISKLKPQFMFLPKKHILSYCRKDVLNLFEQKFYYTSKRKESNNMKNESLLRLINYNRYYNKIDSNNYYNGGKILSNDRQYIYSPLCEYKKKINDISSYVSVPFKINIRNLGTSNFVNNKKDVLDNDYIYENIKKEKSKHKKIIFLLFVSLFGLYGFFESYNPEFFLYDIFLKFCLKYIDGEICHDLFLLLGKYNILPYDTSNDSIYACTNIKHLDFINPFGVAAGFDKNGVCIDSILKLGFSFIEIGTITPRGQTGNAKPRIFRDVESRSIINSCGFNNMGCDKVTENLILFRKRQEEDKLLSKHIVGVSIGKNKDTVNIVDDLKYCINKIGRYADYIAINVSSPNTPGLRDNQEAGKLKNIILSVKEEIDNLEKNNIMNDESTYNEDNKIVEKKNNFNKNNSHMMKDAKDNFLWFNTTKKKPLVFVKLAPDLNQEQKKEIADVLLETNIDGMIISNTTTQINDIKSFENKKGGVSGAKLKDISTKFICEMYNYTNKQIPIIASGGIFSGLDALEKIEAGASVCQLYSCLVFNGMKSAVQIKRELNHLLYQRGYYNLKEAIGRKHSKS
# assay-comment: PfDHODH enzyme inhibitors, primary screen, biochemical, C-terminal His tag, absorbance 600 nm (AID 1175);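 further: recombinant parasite enzyme with a five histidine tag at its C terminus; test concentration not given here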
# test-parameters: DCIP absorbance 600 nm, higher = more signal, called active from +8 up or from −8 down
# print the numeric value only

# compound, composite z-score
rows = [
    ("COc1cc(O)c(C(=O)C=Cc2ccc3c(c2)OCO3)c(OC)c1", 1.06),
    ("O=C(NN=C1C[C@@H](O)[C@@H](O)[C@@H]2[C@@H]3C(=O)N(C4CCCCC4)C(=O)[C@@H]3CC[C@@H]12)OCc1ccccc1", -0.223),
    ("O=C1[C@H]2[C@H]3[C@H](O)[C@H](O)CC(=NOCc4ccccc4)[C@@H]3CC[C@H]2C(=O)N1c1ccc(F)cc1F", -1.42),
    ("CO[C@@H]1COC(=O)[C@@H](C)NC(=O)CC=C[C@@H](C)[C@H](NS(=O)(=O)c2ccc(C)cc2)COC(=O)[C@H](C)NC(=O)CC=C[C@H]1C", 0.0059),
    ("CCOC(=O)[C@H](CC(C)C)NC(=O)CCC1CC(OC(=O)NCCc2ccc(F)cc2)CC2(CCCC(COC(=O)NCCc3ccc(Cl)cc3)O2)O1 (stereo partly drawn)", -0.188),
    ("CO[C@@H]1COC(=O)[C@@H]2CCCN2C(=O)[C@@H](C)COC(=O)CC=C[C@H]1C", -0.385),
    ("O=C1CCCC(C2=CCCCC2=O)C1 (stereo not drawn)", 0.153),
]

INPUT: Name the recorded composite z-score for COc1ccc(COC(=O)NN=C2C[C@@H](O)[C@@H](O)[C@@H]3[C@@H]4C(=O)N(c5cccc(Oc6ccccc6)c5)C(=O)[C@@H]4CC[C@@H]23)cc1 .
OUTPUT: 0.861

---

# target-or-test-system: NADPH oxidase 5 (Homo sapiens) (UniProt Q96PH1)
# Sequence (Q96PH1 whole entry, looked up): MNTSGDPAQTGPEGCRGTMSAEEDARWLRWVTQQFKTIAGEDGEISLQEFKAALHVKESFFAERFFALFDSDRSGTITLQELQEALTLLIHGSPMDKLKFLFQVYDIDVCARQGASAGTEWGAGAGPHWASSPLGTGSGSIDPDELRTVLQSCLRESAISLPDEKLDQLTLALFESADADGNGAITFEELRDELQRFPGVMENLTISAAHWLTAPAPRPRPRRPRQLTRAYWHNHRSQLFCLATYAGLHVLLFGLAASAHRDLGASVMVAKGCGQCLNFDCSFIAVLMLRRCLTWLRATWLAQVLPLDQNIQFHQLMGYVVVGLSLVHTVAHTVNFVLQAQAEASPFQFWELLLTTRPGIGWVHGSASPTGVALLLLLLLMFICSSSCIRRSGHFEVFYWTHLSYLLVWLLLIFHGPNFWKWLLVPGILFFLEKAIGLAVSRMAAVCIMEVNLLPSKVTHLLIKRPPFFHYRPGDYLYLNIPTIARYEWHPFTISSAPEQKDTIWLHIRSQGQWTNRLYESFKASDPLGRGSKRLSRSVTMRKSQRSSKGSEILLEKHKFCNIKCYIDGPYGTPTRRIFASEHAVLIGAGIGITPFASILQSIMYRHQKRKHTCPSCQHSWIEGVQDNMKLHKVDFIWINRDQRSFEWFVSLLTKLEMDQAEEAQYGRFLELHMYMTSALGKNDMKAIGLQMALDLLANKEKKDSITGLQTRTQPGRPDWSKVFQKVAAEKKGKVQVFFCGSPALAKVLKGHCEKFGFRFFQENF
# assay-comment: NOX5-dependent H2O2 signal modulators, primary screen, NOX inhibitor project, cell-based, HEK293-NOX5, Amplex Red fluorescence (AID 1161)
# test-parameters: HEK293-NOX5, ionomycin, 45 min, higher = more signal
Entries and their z-score values follow.
# print the numeric value only

# compound, z-score
rows = [
    ("O=C1[C@H]2[C@H]3[C@H](O)[C@H](O)CC(=NOC[C@@H](O)COCc4ccco4)[C@H]3CC[C@H]2C(=O)N1Cc1ccccc1", 0.0182),
    ("CCOC(=O)C1=NO[C@@]2(C=C(Br)C3(OCCCO3)[C@H]3O[C@H]32)C1", 0.43),
    ("COC(=O)CC=C[C@@H](C)[C@@H](C=NO[C@H](C)c1cn([C@H](CO)Cc2ccccc2)nn1)NS(=O)(=O)c1ccc(C)cc1", -0.0369),
    ("O=C1[C@H]2[C@H]3[C@H](O)[C@H](O)CC(=NOCc4ccccc4)[C@@H]3CC[C@H]2C(=O)N1c1ccc(F)cc1F", 0.343),
    ("CCOC(=O)NN=C1C[C@@H](O)[C@@H](O)[C@@H]2[C@@H]3C(=O)N(Cc4ccccc4)C(=O)[C@@H]3CC[C@H]12", 0.0313),
]

INPUT: Observed z-score on NADPH oxidase 5 (Homo sapiens) (UniProt Q96PH1) for O=C(C=Cc1ccc2c(c1)OCO2)c1ccc(F)cc1 , please.
OUTPUT: -1.56

INPUT: Observed z-score on NADPH oxidase 5 (Homo sapiens) (UniProt Q96PH1) for CCC(=O)[C@@]1(O)C(=O)N2C(=C3C(=O)OCC[C@@H]31)N(Cc1ccccc1)C(C)=C(C(=O)OC)[C@H]2c1ccccc1 , please.
OUTPUT: 0.245

INPUT: Observed z-score on NADPH oxidase 5 (Homo sapiens) (UniProt Q96PH1) for O=C1C=C[C@@H](O)[C@@H]2[C@@H]3C(=O)N(c4ccc(F)cc4F)C(=O)[C@@H]3CC[C@@H]12 , please.
OUTPUT: 0.713

INPUT: Observed z-score on NADPH oxidase 5 (Homo sapiens) (UniProt Q96PH1) for CC=CC1=C(CO)C(=O)[C@@H]2O[C@@H]2C1=O , please.
OUTPUT: 0.846

INPUT: Observed z-score on NADPH oxidase 5 (Homo sapiens) (UniProt Q96PH1) for CCCNC(=O)OC[C@H]1O[C@H](CCON=C(C)CCN2CCCc3nc(C)c(C)cc32)C=C[C@@H]1Oc1ccc(OC)cc1 , please.
OUTPUT: -1.14

INPUT: Observed z-score on NADPH oxidase 5 (Homo sapiens) (UniProt Q96PH1) for CCCCC#C[C@@H]1C=C[C@H](Oc2ccc(C(=O)OC)cc2)[C@@H](COC(=O)OCC)O1 , please.
OUTPUT: 1.03

INPUT: Observed z-score on NADPH oxidase 5 (Homo sapiens) (UniProt Q96PH1) for O=C1CCCC(C2=CCCCC2=O)C1 (configuration not stated) , please.
OUTPUT: -0.253

INPUT: Observed z-score on NADPH oxidase 5 (Homo sapiens) (UniProt Q96PH1) for C#CCCCON=C1C[C@@H](O)[C@@H](O)[C@@H]2[C@@H]3C(=O)N(C(C)(C)C)C(=O)[C@@H]3CC[C@@H]12 , please.
OUTPUT: -0.106

INPUT: Observed z-score on NADPH oxidase 5 (Homo sapiens) (UniProt Q96PH1) for CO[C@@H]1COC(=O)CC=C[C@@H](C)[C@@H]2C=C[C@H](O)[C@@H](COC(=O)CC=C[C@H]1C)O2 , please.
OUTPUT: 0.589

INPUT: Observed z-score on NADPH oxidase 5 (Homo sapiens) (UniProt Q96PH1) for C=C(C)C(=O)OCC1CN2[C@@H](CC[C@@H](C)[C@@H]2c2ccc(Br)cc2)C(=O)O1 (some centres not stated) , please.
OUTPUT: -0.475

INPUT: Observed z-score on NADPH oxidase 5 (Homo sapiens) (UniProt Q96PH1) for CCOC(=O)[C@H](CC(C)C)NC(=O)CCC1CC(OC(=O)NCc2ccc3c(c2)OCO3)CC2(CCCC(COC(=O)NCCCN3CCCC3=O)O2)O1 (some centres not stated) , please.
OUTPUT: 0.32

INPUT: Observed z-score on NADPH oxidase 5 (Homo sapiens) (UniProt Q96PH1) for CO[C@H]1COC(=O)CC=C[C@H](C)COC(=O)[C@@H](C)NC(=O)CC=C[C@@H]1C , please.
OUTPUT: -0.0359

src = PubChem BioAssay
